This listing pairs compounds with measured IC50.
Target: Avi-KRAS WT (1-169) GppNHp/RAF1 RBD-3xFLAG (52-151) (Homo sapiens)
Construct: Avi-KRAS WT (1-169)
Sequence (P01116 1-169 isoform P01116-2): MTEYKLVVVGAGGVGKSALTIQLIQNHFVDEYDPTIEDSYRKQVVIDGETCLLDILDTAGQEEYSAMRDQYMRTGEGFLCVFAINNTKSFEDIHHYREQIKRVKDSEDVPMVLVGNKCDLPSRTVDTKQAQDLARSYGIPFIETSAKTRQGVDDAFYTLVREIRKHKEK
Test: Raf1-KRAS WT-GppNHP disruption HTRF assay (Biological Example 1)
Assay type: binding
Conditions: KRAS WT-GppNHp/RAF1 RBD HTRF

// known answers, use as guide
C[C@H]1CC[C@@H](O)CN1c1nc(OC[C@@]23CCCN2C[C@H](F)C3)nc2c(F)c(-c3ccc(F)c4sc(N)c(C#N)c34)c(C(F)(F)F)cc12	100 to 1000 nM
CN(C)C(=O)[C@H]1CC[C@@H](N(C)c2nc(OC[C@@]34CCCN3C[C@H](F)C4)nc3c(F)c(-c4ccc(F)c5sc(N)c(C#N)c45)c(C(F)(F)F)cc23)C1	1000 to 10000 nM
N#Cc1c(N)sc2c(F)ccc(-c3c(C(F)(F)F)cc4c(N5C6COCC5CC(O)C6)nc(OC[C@@]56CCCN5C[C@H](F)C6)nc4c3F)c12 (some centres unmarked)	100 to 1000 nM
C[C@@H]1[C@H](N(C)c2nc(OC[C@@]34CCCN3C[C@H](F)C4)nc3c(F)c(-c4ccc(F)c5sc(N)c(C#N)c45)c(Cl)cc23)CCN1C(=O)C(F)F	100 to 1000 nM
CC[C@@H](C)C(=O)N1CC[C@H](N(CC)c2nc(OC[C@@]34CCCN3C[C@H](F)C4)nc3c(F)c(-c4ccc(F)c5sc(N)c(C#N)c45)c(C(F)(F)F)cc23)C1 (atropisomer, axis not shown)	100 to 1000 nM
CCN(c1nc(OC[C@@]23CCCN2C[C@H](F)C3)nc2c(F)c(-c3ccc(F)c4sc(N)c(C#N)c34)c(C(F)(F)F)cc12)[C@H]1C[C@H](C)N(C(C)=O)C1	< 100 nM

So, `CCN(c1nc(OC[C@@]23CCCN2C[C@H](F)C3)nc2c(F)c(-c3ccc(F)c4sc(N)c(C#N)c34)c(C(F)(F)F)cc12)[C@H]1C[C@H](C)N(C(=O)C2CC2)C1` ? Its IC50 was < 100 nM

For this compound ( `CN1C[C@@H](N(C)c2nc(OC[C@@]34CCCN3C[C@H](F)C4)nc3c(F)c(-c4ccc(F)c5sc(N)c(C#N)c45)c(C(F)(F)F)cc23)CC1=O` ), measured IC50 is 100 to 1000 nM

Value of IC50 reported for the compound `N#Cc1c(N)sc2c(F)ccc(-c3c(C(F)(F)F)cc4c(N5CCCN6C(=O)CC[C@H]6C5)nc(OC[C@@]56CCCN5C[C@H](F)C6)nc4c3F)c12` is 100 to 1000 nM

response.value for `CC(C)C(=O)N1CC[C@@H]2[C@H]1CN2c1nc(OC[C@@]23CCCN2C[C@H](F)C3)nc2c(F)c(-c3ccc(F)c4sc(N)c(C#N)c34)c(C(F)(F)F)cc12` (field: IC50) = 1000 to 10000 nM

Value of IC50 reported for the compound `C[C@@H]1[C@H](N(C)c2nc(OC[C@@]34CCCN3C[C@H](F)C4)nc3c(F)c(-c4ccc(F)c5sc(N)c(C#N)c45)c(Cl)cc23)CCN1C(=O)CF` is 100 to 1000 nM

Documented IC50 of `N#Cc1cc2n(n1)CCN(c1nc(OC[C@@]34CCCN3C[C@H](F)C4)nc3c(F)c(-c4ccc(F)c5sc(N)c(C#N)c45)c(C(F)(F)F)cc13)C2` : > 10000 nM

Short answer for `CCC(=O)N1CC[C@@H](N(C)c2nc(OC[C@@]34CCCN3C[C@H](F)C4)nc3c(F)c(-c4ccc(F)c5sc(N)c(C#N)c45)c(C(F)(F)F)cc23)[C@H]1CC` : IC50 was 100 to 1000 nM
